# Test system: MRC5 cells
# Protocol Description: Cell toxicity, CyQUANT cell number, MRC5
# Type: cell-based, human
# Run Conditions: 48 h, up to 150 μM
Recorded Endpoint: toxic effect on MRC5 cells (normal fibroblasts)

| Molecule | Test Value |
| --- | --- |
| CCCCOC(=O)c1ccc2c(c1)C1C=CCC1C(C(=O)O)N2 (stereo not drawn) | toxic effect |
| O=C(O)c1ccccc1C(=O)c1ccc(O)cc1O [C2, 2-(2,4-dihydroxybenzoyl)benzoic acid] | no toxic effect |
| Cc1ccc(C(=O)c2ccccc2C(=O)O)c(O)c1 | no toxic effect |
| O=C(O)c1ccccc1C(=O)c1ccc2ccccc2c1O [C2.02, 2-(1-hydroxy-2-naphthoyl)benzoic acid] | toxic effect |
| CC(C)COC(=O)c1ccc2c(c1)C1C=CCC1C(C(=O)O)N2 (stereo not drawn) | toxic effect |
| CCOC(=O)c1ccc2c(c1)C1C=CCC1C(C(=O)O)N2 (stereo not drawn) | toxic effect |

Source: paper PMC5349447
